B1: CAMK2A (parent)
chain: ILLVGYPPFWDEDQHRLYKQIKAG

- Variants of: B1
- ASSAY PROCEDURE: protein stability index of a GFP-peptide fusion (GPS, HEK-293T) (PSI 1-6); higher = more stable;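 note: lentivirally expressed fusions sorted by FACS into six bins by GFP to DsRed ratio, PSI derived from sequencing read proportions per bin multiplied by bin number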
- REPORTED CONDITIONS: c terminus: a fixed tail appended
Criterion: protein stability index meeting or surpassing 2. Met: True. Not met: False.

{"MUTANT": "W10P", "ANSWER LABEL": "True"}
{"MUTANT": "R16K", "ANSWER LABEL": "False"}
{"MUTANT": "E12V", "ANSWER LABEL": "True"}
{"MUTANT": "D11E", "ANSWER LABEL": "True"}
{"MUTANT": "R16I", "ANSWER LABEL": "False"}
{"MUTANT": "Y6E", "ANSWER LABEL": "True"}
{"MUTANT": "L3N", "ANSWER LABEL": "True"}
{"MUTANT": "Q14R", "ANSWER LABEL": "True"}
{"MUTANT": "W10H", "ANSWER LABEL": "False"}
{"MUTANT": "V4H", "ANSWER LABEL": "True"}
{"MUTANT": "I1Y", "ANSWER LABEL": "False"}
{"MUTANT": "L17G", "ANSWER LABEL": "False"}
{"MUTANT": "K19D", "ANSWER LABEL": "True"}
{"MUTANT": "A23M", "ANSWER LABEL": "True"}
{"MUTANT": "L17D", "ANSWER LABEL": "True"}
{"MUTANT": "H15K", "ANSWER LABEL": "False"}
{"MUTANT": "K19A", "ANSWER LABEL": "False"}
{"MUTANT": "F9E", "ANSWER LABEL": "False"}
{"MUTANT": "G5T", "ANSWER LABEL": "True"}
